- TARGET: Recombinant human MASP2 enzyme (fragment corresponding to amino acids 297-686, C-terminal His Tag) (human, UniProt O00187 297-686)
- Sequence (O00187 other isoform, or with tags, fused parts or gaps limits assumed): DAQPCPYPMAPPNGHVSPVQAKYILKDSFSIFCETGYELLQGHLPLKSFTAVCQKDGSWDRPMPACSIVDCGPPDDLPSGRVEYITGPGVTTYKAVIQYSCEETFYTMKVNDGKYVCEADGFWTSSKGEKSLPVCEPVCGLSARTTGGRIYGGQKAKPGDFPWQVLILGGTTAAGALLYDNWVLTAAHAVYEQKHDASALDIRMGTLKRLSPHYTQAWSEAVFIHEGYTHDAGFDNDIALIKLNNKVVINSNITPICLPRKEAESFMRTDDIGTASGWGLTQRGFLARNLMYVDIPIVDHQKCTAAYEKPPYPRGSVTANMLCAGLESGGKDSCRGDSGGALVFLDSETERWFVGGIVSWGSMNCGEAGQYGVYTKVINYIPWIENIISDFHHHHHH
- METHOD NOTES: cell-based or functional assay
Bridge positions count the residues as written; N and C are the ends. Square brackets hold non-standard residues; d marks the D form. Ends that are not written are not given here. Oic = O=C(O)[C@@H]1C[C@@H]2CCCC[C@@H]2N1; tBuAla = CC(C)(C)C[C@H](N)C(=O)O; Pen = CC(C)(S)[C@H](N)C(=O)O; NMeC = CN[C@@H](CS)C(=O)O
Some binders, each annotated with its measured human MASP2 IC50.
Quick note: give the figure in nM, leave out the unit.

BINDER: ICSRSLP[Oic]I[Pen]IPD-NH2 (disulfide 2-10; N-terminus assumed; SMILES CC[C@H](C)[C@H](N)C(=O)N[C@H]1CSSC(C)(C)[C@@H](C(=O)N[C@H](C(=O)N2CCC[C@H]2C(=O)N[C@@H](CC(=O)O)C(N)=O)[C@@H](C)CC)NC(=O)[C@H]([C@@H](C)CC)NC(=O)[C@@H]2C[C@@H]3CCCC[C@@H]3N2C(=O)[C@@H]2CCCN2C(=O)[C@H](CC(C)C)NC(=O)[C@H](CO)NC(=O)[C@H](CCCNC(=N)N)NC(=O)[C@H](CO)NC1=O) [IC+SRSLP-(Oic)-I-(Pen)+IPD-NH2]
human MASP2 IC50, nM: 603

# evaluate next
Quick one: human MASP2 IC50 for AICSRS[tBuAla]P[Oic]I[NMeC]I-NH2 (disulfide 3-11; N-terminus assumed; SMILES CC[C@H](C)[C@H](NC(=O)[C@@H]1CSSC[C@H](NC(=O)[C@@H](NC(=O)[C@H](C)N)[C@@H](C)CC)C(=O)N[C@@H](CO)C(=O)N[C@@H](CCCNC(=N)N)C(=O)N[C@@H](CO)C(=O)N[C@@H](CC(C)(C)C)C(=O)N2CCC[C@H]2C(=O)N2[C@@H](C[C@@H]3CCCC[C@@H]32)C(=O)N[C@@H]([C@@H](C)CC)C(=O)N1C)C(N)=O) [AIC+SRS-((tBu)A)-P-(Oic)-I-((N-Me)C)+I-NH2] ?
250
